# Subject Of Test: Hfq WT (Escherichia coli, UniProt P0A6X3 1-102)
# Assay Protocol: fluorescence anisotropy
pKd: −log10 of the molar value.
// reported pKd for each item listed
Outcome Measure: pKd

[[record]]
binder = "AAAAAAAAAAAAAAAAAA (ssRNA) [A18]"
outcome_measure = "pKd"
obs_value = 7.88

[[record]]
binder = "CGAAUUUUUUAAGUGC (ssRNA) [D16]"
outcome_measure = "pKd"
obs_value = 7.65

